Give measured difference for each item. Keep answers brief.
Tested on: Danio rerio larvae (5 dpf)
Assay: difference in combined optomotor response to red, green and blue moving lines vs DMSO (percentage points); higher = stronger optomotor response than DMSO
Conditions: 10 µM; exposure time 6 h
Where a name gives a salt, the structure may show the parent alone.
Answers are plain numbers.

Guide cases for difference, answers given:
NCC[C@H](O)C(=O)N[C@@H]1C[C@H](N)[C@@H](O[C@H]2O[C@H](CN)[C@@H](O)[C@H](O)[C@H]2O)[C@H](O)[C@H]1O[C@H]1O[C@H](CO)[C@@H](O)[C@H](N)[C@H]1O ... 6.4
CNC(=O)c1ccccc1Sc1ccc2c(/C=C/c3ccccn3)n[nH]c2c1 ... 6.84
COc1ccc2c(c1)c(CC(=O)O)c(C)n2C(=O)c1ccc(Cl)cc1 ... 1.47
COc1ccc(C[C@@H](C)NC[C@H](O)c2ccc(O)c(NC=O)c2)cc1 [Arformoterol (tartrate)] ... -2.14
CCCCCOc1ccc(-c2ccc(-c3ccc(C(=O)N[C@H]4C[C@@H](O)[C@@H](O)NC(=O)[C@@H]5[C@@H](O)[C@@H](C)CN5C(=O)[C@H]([C@@H](C)O)NC(=O)[C@H]([C@H](O)[C@@H](O)c5ccc(O)cc5)NC(=O)[C@@H]5C[C@@H](O)CN5C(=O)[C@H]([C@@H](C)O)NC4=O)cc3)cc2)cc1 ... -18.1
C=C1CCN([C@H](C)[C@](O)(Cn2cncn2)c2ccc(F)cc2F)CC1 ... 1.58
CN(C)C(=N)NC(=N)N [Metformin (hydrochloride)] ... -1.97
Cc1cc2c(s1)Nc1ccccc1N=C2N1CCN(C)CC1 ... 4.38
CCCCC(C)(O)C/C=C/[C@H]1[C@H](O)CC(=O)[C@@H]1CCCCCCC(=O)OC (mixture of isomers) ... -1.41
CO/N=C(\C(=O)N[C@@H]1C(=O)N2C(C(=O)[O-])=C(C[N+]3(C)CCCC3)CS[C@H]12)c1csc(N)n1 [Cefepime (hydrochloride hydrate)] ... -1.46

// each compound listed below needs its difference
1. OC[C@H]1O[C@@H](c2ccc(Cl)c(Cc3ccc(O[C@H]4CCOC4)cc3)c2)[C@H](O)[C@@H](O)[C@@H]1O
2. C[C@@H](c1ncncc1F)[C@](O)(Cn1cncn1)c1ccc(F)cc1F
3. NCCc1ccc(O)c(O)c1 [Dopamine (hydrochloride)]
4. Cc1ccc(O)c([C@H](CCN(C(C)C)C(C)C)c2ccccc2)c1 [Tolterodine (tartrate)]

[4.06, 5.07, 2.15, -10.6]

====

System: Danio rerio larvae (5 dpf)
Experiment: difference in combined optomotor response to red, green and blue moving lines vs DMSO (percentage points); higher = stronger optomotor response than DMSO
Details: 10 µM; exposure time 6 h
REPORTED METRIC: difference
One number for each entry.

Here are 3 molecules together with their reported answers.
CC(C)(C)c1nc(-c2cccc(NS(=O)(=O)c3c(F)cccc3F)c2F)c(-c2ccnc(N)n2)s1 [Dabrafenib] ... -1.51
C[C@@H](O[C@H]1OCCN(Cc2n[nH]c(=O)[nH]2)[C@H]1c1ccc(F)cc1)c1cc(C(F)(F)F)cc(C(F)(F)F)c1 [Aprepitant] ... 4.82
Cc1ccnc2c1NC(=O)c1cccnc1N2C1CC1 [Nevirapine] ... -3.5

Read the next record carefully.
Query (molecule): O=C(CCCN1CC=C(n2c(=O)[nH]c3ccccc32)CC1)c1ccc(F)cc1 [Droperidol] ; field requested: difference -0.322

Recorded values, source the supplement of paper PMC10515830.
